The measured values listed here are drawn from paper PMC9706633.

system: cCCK2R; assay: pGL3-CRE-luciferase reporter assay; format: cell-based, chicken; settings: read-out: EC50, cAMP/PKA signaling pathway, CHO cells expressing cCCK2R, peptide 10^−12 M - 10^−6 M, 6 h, triplicates (N = 3)
QUANTITY_MEASURED: pEC50
The read-out pEC50 is expressed as -log10 of concentration in moles per litre.

Please fill in: pEC50 reported for DYMGWMDF [cCCK-8S] = 7.53
